Experimental Target: T1, human PD-1 protein (human, UniProt Q15116 25-167, limits assumed)
T1 construct: also called human PD-1 antigen
T1 sequence (Q15116 25-167 limits assumed): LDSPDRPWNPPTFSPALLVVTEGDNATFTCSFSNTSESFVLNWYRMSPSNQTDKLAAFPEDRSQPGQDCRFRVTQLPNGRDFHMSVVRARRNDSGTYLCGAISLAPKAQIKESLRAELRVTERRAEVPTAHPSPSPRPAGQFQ
Assay Protocol: SPR, binding kinetics to human PD-1
Each record here notes measured Kd.
# unit: nM | format: bare number

Input line: I would be grateful if you could share the reported Kd for AHF16568 (antibody, V domains shown) VH: QVQLVQSGAEVKKPGASVKVSCKASGYTFTGYWMHWVRQAPGQGLEWIGMIHPNSDTTIYNWKFKNRVTMTRDTSISTAYMELSRLRSDDTAVYYCAGTDQEAWMGFWGQGTTVTVSS VL: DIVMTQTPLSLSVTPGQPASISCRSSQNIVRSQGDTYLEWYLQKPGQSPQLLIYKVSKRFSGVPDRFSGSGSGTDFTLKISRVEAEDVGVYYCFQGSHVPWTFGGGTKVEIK .
Output line: 0.241

Input line: Continue with AHF16564 (antibody, V domains shown) VH: QVQLVQSGAEVKKPGASVKVSCKASGYTFTGYWMHWVRQAPGQGLEWIGMIHPNSDTTTYNEKFKNRVTMTRDTSISTAYMELSRLRSDDTAVYYCAGTDQEAWAGFWGQGTTVTVSS VL: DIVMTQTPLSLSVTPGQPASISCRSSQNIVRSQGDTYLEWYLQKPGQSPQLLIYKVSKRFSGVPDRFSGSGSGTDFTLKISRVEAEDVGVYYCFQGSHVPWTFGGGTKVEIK
Output line: 0.16

Input line: Continue with AHF16557 (antibody, V domains shown) VH: QVQLVQSGAEVKKPGASVKVSCKASGYTFTGYWMHWVRQAPGQGLEWIGMIHPNSDTTVYNWKFKNRVTMTRDTSISTAYMELSRLRSDDTAVYYCAGTDQAAWAGFWGQGTTVTVSS VL: DIVMTQTPLSLSVTPGQPASISCRSSQNIVHSQGDTYLEWYLQKPGQSPQLLIYKVSKRFSGVPDRFSGSGSGTDFTLKISRVEAEDVGVYYCFQGSHVPWTFGGGTKVEIK
Output line: 0.425
